Would you kindly list Efficacy, MMP3/MMP9 gelatin assay for each of these binders?
# assayed.target: rat proMMP9 (rat, UniProt P50282 20-708)
# Sequence (P50282 20-708): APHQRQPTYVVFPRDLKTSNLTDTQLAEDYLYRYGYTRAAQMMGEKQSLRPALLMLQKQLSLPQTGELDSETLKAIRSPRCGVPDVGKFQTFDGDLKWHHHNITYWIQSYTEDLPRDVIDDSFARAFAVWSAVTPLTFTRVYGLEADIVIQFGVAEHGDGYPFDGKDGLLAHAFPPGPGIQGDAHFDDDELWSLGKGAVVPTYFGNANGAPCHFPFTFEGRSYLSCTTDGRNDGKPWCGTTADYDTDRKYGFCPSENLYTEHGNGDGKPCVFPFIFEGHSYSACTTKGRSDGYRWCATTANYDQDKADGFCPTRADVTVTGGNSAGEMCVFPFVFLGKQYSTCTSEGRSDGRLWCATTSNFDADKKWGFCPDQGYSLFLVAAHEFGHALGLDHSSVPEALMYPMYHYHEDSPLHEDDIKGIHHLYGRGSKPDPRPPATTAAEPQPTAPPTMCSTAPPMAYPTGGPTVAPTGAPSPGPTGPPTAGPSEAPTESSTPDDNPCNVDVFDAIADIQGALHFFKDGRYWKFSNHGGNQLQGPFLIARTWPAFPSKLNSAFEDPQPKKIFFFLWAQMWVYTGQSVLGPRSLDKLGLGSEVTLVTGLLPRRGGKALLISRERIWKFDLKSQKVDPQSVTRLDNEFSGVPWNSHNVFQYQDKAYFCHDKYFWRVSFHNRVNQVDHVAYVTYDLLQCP
# experiment.summary: cell-based or functional assay
One number for each entry, in %.

F20-VH-GL1/B03-VL-GL1c (antibody, human IgG4, V domains shown) VH: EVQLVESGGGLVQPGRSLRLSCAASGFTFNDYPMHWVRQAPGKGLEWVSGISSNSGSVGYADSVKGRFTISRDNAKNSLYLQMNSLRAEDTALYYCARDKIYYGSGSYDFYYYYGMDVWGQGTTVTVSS VL: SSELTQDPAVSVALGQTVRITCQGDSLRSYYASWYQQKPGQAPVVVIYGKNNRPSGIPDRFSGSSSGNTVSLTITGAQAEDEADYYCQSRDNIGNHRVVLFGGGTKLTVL :: 100
F20-VH-GL1-V4-V9-V14/B08-VL-GL6c (antibody, human IgG4 S228P, V domains shown) VH: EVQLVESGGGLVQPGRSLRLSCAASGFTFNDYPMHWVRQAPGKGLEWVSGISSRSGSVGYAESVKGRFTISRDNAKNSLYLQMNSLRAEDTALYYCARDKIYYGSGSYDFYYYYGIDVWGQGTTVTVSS VL: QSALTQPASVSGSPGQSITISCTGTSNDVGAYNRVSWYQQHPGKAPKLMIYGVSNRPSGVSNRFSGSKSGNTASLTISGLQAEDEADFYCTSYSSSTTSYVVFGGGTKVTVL :: 100
F20-VH-GL1/B08-VL-GL6c (antibody, human IgG4, V domains shown) VH: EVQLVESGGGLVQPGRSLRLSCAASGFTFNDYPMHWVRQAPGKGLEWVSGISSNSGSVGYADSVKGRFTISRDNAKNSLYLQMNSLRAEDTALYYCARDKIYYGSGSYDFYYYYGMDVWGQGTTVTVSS VL: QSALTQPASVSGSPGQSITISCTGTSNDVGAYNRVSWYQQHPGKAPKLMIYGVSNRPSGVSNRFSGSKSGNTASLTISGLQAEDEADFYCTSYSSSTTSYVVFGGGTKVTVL :: 100
F20-VH-GL1-V1-V9-V14/B08-VL-GL6c (antibody, human IgG4 S228P, V domains shown) VH: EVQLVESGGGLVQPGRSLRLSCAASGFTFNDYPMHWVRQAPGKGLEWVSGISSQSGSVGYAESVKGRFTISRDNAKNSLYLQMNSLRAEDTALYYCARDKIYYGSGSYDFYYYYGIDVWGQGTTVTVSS VL: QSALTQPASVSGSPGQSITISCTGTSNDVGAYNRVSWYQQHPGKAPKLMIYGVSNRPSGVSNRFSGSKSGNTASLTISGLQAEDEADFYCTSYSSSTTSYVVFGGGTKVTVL :: 100

Field: next binder
Request: Specify reported Efficacy, MMP3/MMP9 gelatin assay for the binder shown: F20-VH-GL1-V4-V9/B08-VL-GL6c (antibody, human IgG4 S228P, V domains shown, The light chain constant region is not tied to it; also called F20-VH/B08-VLc variant; F20-VH/B08-VLc) VH: EVQLVESGGGLVQPGRSLRLSCAASGFTFNDYPMHWVRQAPGKGLEWVSGISSRSGSVGYAESVKGRFTISRDNAKNSLYLQMNSLRAEDTALYYCARDKIYYGSGSYDFYYYYGMDVWGQGTTVTVSS VL: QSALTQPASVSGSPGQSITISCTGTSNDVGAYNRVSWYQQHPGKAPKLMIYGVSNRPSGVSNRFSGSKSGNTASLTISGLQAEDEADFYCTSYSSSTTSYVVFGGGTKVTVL
Result: 100
